experiment: chemical genetic growth profiling, strain panel (AID 1159580);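 note: tested at 20 µM; growth read once vehicle control cultures reached saturation at 30 °C; 1 = growth at the plate median or of vehicle wells; lower values mean less growth of the strain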; conditions: S. cerevisiae deletion strains, growth OD, locus YAL026C, strain drs2
Among all 5,500 compounds or so, about 2,000 (36%) were called active. Not shown: some 18% with an inconclusive outcome. Cut-off read from the data, not from the text of the source: active = normalized growth mostly below about 0.91 (no sharp cut-off); inconclusive = no clear call, values can overlap the other calls; inactive = mostly above about 0.92. The list shows a part of the results.
Possible outcomes: 1.0 for active, 0.0 for inactive

Compound	Group
CC(CCc1ccccc1)NCC(O)c1ccc(O)c(C(N)=O)c1 (stereo not given)	0.0
CC1=CC(=O)c2c(O)cccc2C1=O	1.0
CC(CCC(=O)O)[C@H]1CCC2C3C(=O)C[C@@H]4CC(=O)CC[C@]4(C)C3CC(=O)[C@@]21C (stereo not given in full)	0.0
CC(C)=CCc1c2c(c3occ(-c4ccc(O)cc4)c(=O)c3c1O)C=CC(C)(C)O2	0.0
CN(C)[C@@H]1C(=O)C(C(N)=O)=C(O)[C@@]2(O)C(=O)C3=C(O)c4c(O)ccc(Cl)c4[C@@](C)(O)[C@H]3C[C@@H]12	0.0
CN(C)[C@@H]1C(=O)C(C(=O)NCN2CCCC2)=C(O)[C@@]2(O)C(=O)C3=C(O)c4c(O)cccc4[C@@](C)(O)[C@H]3C[C@@H]12	0.0
CCOC(=O)NNc1nncc2ccccc12	0.0
Cc1scc2c1N(C(=O)CN1CCN(C)CC1)c1ccccc1NC2=O	0.0
CC1=CC(=O)c2ccccc2C1=O	1.0
NC1=NCCN1CC(=O)O	0.0

----------
normalized growth listing for selected compounds.
assay: chemical genetic growth profiling, strain panel (AID 1159580);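 note: tested at 20 µM; growth read once vehicle control cultures reached saturation at 30 °C; 1 = growth at the plate median or of vehicle wells; lower values mean less growth of the strain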; conditions: S. cerevisiae deletion strains, growth OD, locus YOL147C, strain pex11, stronger effect = lower value
The whole screen tested about 5,500 compounds, of which about 2,000 (36%) were called active. Inconclusive results (about 18%) are left out. The list shows a part of the results.
Value kind: normalized growth

Compound	Reported
CC[N+](C)(C)c1cccc(O)c1	0.982
CN(C)[C@@H]1C(=O)C(C(N)=O)=C(O)[C@@]2(O)C(=O)C3=C(O)c4c(O)ccc(Cl)c4[C@@](C)(O)[C@H]3C[C@@H]12	1.02
CCOC(=O)[C@H](CCc1ccccc1)N[C@@H](C)C(=O)N1CCC[C@H]1C(=O)O	1.01
NNCc1cccc(O)c1	1
COc1ccc2cc(CCC(C)=O)ccc2c1	0.939
CC(CCc1ccccc1)NCC(O)c1ccc(O)c(C(N)=O)c1 (configuration not stated)	1.01
Oc1cccc(O)c1	0.995

----------
Documented normalized growth across a set of molecules
experiment: chemical genetic growth profiling, strain panel (AID 1159580);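 note: tested at 20 µM; growth read once vehicle control cultures reached saturation at 30 °C; 1 = growth at the plate median or of vehicle wells; lower values mean less growth of the strain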; details: S. cerevisiae deletion strains, growth OD, locus YEL037C, strain rad23, stronger effect = lower value
Screen size: about 5,500 compounds; about 2,000 (36%) were called active. About 18% were inconclusive and are not listed. This is one part of the list.

Structure smiles string	normalized growth
C=C1c2cccc(O)c2C(O)=C2C(=O)[C@]3(O)C(O)=C(C(N)=O)C(=O)[C@@H](N(C)C)[C@@H]3[C@@H](O)[C@H]12	1.01 (inactive)
C=C1c2c(Cl)ccc(O)c2C(O)=C2C(=O)[C@]3(O)C(O)=C(C(N)=O)C(=O)[C@@H](N(C)C)[C@@H]3[C@@H](O)[C@H]12	0.962 (inactive)
C[C@H]1c2cccc(O)c2C(O)=C2C(=O)[C@]3(O)C(O)=C(C(N)=O)C(=O)[C@@H](N(C)C)[C@@H]3[C@@H](O)[C@@H]21	0.975 (inactive)

// provenance: PubChem BioAssay AID1159580
